Data origin, for the record: paper PMC8301544

# procedure.details: Plasma pharmacokinetics after single dose in healthy subjects (LC-MS/MS, noncompartmental analysis)
# Format: in vivo, human
# condition.info: human, plasma, po, 400 mg, moxifloxacin single 400 mg oral dose; read-out: time to peak plasma concentration
measured.parameter: Tmax

>>> result("COc1c(N2C[C@@H]3CCCN[C@@H]3C2)c(F)cc2c(=O)c(C(=O)O)cn(C3CC3)c12 [moxifloxacin, reference compound]")
"~1.9 h"

###

# procedure.details: Plasma pharmacokinetics after single dose in healthy subjects (LC-MS/MS, noncompartmental analysis)
# Type: in vivo, human
# condition.info: human, plasma, iv; durlobactam 4 g single 3-h i.v. infusion, n = 31, mean
# Method: Moxifloxacin was administered open‐label. Plasma concentrations less than the lower limit of quantification were reported as 0. Plasma concentrations of durlobactam were determined by validated liquid chromatography with tandem mass spectrometry (LC‐MS/MS) assays operated in the negative ion mode (method number M8351072B) performed at Covance (Salt Lake City, UT). For durlobactam, the quantitation range was 5–5000 ng/ml. […] The quantitation range was 1–1000 ng/ml. […]
measured.parameter: AUC(0-inf) (µg·h/mL)

>>> recorded_number("CC1=C[C@@H]2CN(C(=O)N2OS(=O)(=O)O)[C@@H]1C(N)=O [durlobactam]")
413

###

# procedure.details: Plasma pharmacokinetics after single dose in healthy subjects (LC-MS/MS, noncompartmental analysis)
# Format: in vivo, human
# condition.info: human, plasma, iv, 4 g, durlobactam 4 g single 3-h i.v. infusion, healthy subjects, n = 31, mean; read-out: Cmax
measured.parameter: Cmax (µg/mL)

>>> recorded_number("CC1=C[C@@H]2CN(C(=O)N2OS(=O)(=O)O)[C@@H]1C(N)=O")
108

###

# procedure.details: Plasma pharmacokinetics after single dose in healthy subjects (LC-MS/MS, noncompartmental analysis)
# Assay type: in vivo, human
# condition.info: human, plasma, iv; durlobactam 4 g single 3-h i.v. infusion; read-out: mean apparent half-life (converted)
measured.parameter: half-life (h)

>>> recorded_number("CC1=C[C@@H]2CN(C(=O)N2OS(=O)(=O)O)[C@@H]1C(N)=O [durlobactam]")
2.3

###

# procedure.details: Plasma pharmacokinetics after single dose in healthy subjects (LC-MS/MS, noncompartmental analysis)
# Format: in vivo, human
# condition.info: human, plasma, iv, 4 g, durlobactam 4 g single 3-h i.v. infusion, n = 31, mean, after start of infusion; read-out: Tmax
measured.parameter: Tmax

>>> result("CC1=C[C@@H]2CN(C(=O)N2OS(=O)(=O)O)[C@@H]1C(N)=O")
"~3 h"

###

# procedure.details: Plasma pharmacokinetics after single dose in healthy subjects (LC-MS/MS, noncompartmental analysis)
# Assay type: in vivo, human
# condition.info: human, plasma; moxifloxacin single 400 mg oral dose; read-out: mean AUC0-last
measured.parameter: AUC(0-t) (ng·h/mL)

>>> recorded_number("COc1c(N2C[C@@H]3CCCN[C@@H]3C2)c(F)cc2c(=O)c(C(=O)O)cn(C3CC3)c12 [moxifloxacin, reference compound]")
22600

###

# procedure.details: Plasma pharmacokinetics after single dose in healthy subjects (LC-MS/MS, noncompartmental analysis)
# Type: in vivo, human
# condition.info: human, plasma, iv; durlobactam 4 g single 3-h i.v. infusion, n = 31, mean; read-out: CL (total body clearance) (converted)
# Experimental: Moxifloxacin was administered open‐label. Plasma concentrations less than the lower limit of quantification were reported as 0. Plasma concentrations of durlobactam were determined by validated liquid chromatography with tandem mass spectrometry (LC‐MS/MS) assays operated in the negative ion mode (method number M8351072B) performed at Covance (Salt Lake City, UT). For durlobactam, the quantitation range was 5–5000 ng/ml. […] The quantitation range was 1–1000 ng/ml. […]
measured.parameter: clearance

>>> result("CC1=C[C@@H]2CN(C(=O)N2OS(=O)(=O)O)[C@@H]1C(N)=O")
"~165 mL/min"

###

# procedure.details: Plasma pharmacokinetics after single dose in healthy subjects (LC-MS/MS, noncompartmental analysis)
# Assay type: in vivo, human
# condition.info: human, plasma, iv; durlobactam 4 g single 3-h i.v. infusion, n = 31, mean; read-out: AUC0-24
measured.parameter: AUC(0-t) (µg·h/mL)

>>> recorded_number("CC1=C[C@@H]2CN(C(=O)N2OS(=O)(=O)O)[C@@H]1C(N)=O [durlobactam]")
413

###

# procedure.details: Plasma pharmacokinetics after single dose in healthy subjects (LC-MS/MS, noncompartmental analysis)
# Format: in vivo, human
# condition.info: human, plasma, iv, 4 g, durlobactam 4 g single 3-h i.v. infusion, n = 31, mean; read-out: Vz (volume of distribution)
measured.parameter: Vd (L)

>>> recorded_number("CC1=C[C@@H]2CN(C(=O)N2OS(=O)(=O)O)[C@@H]1C(N)=O")
33.6

###

# procedure.details: Plasma pharmacokinetics after single dose in healthy subjects (LC-MS/MS, noncompartmental analysis)
# Assay type: in vivo, human
# condition.info: human, plasma, po, 400 mg, moxifloxacin single 400 mg oral dose; read-out: mean Cmax
measured.parameter: Cmax (ng/mL)

>>> recorded_number("COc1c(N2C[C@@H]3CCCN[C@@H]3C2)c(F)cc2c(=O)c(C(=O)O)cn(C3CC3)c12 [moxifloxacin, reference compound]")
2180

###

# procedure.details: Plasma pharmacokinetics after single dose in healthy subjects (LC-MS/MS, noncompartmental analysis)
# Assay type: in vivo, human
# condition.info: human, plasma, iv, 4 g, durlobactam 4 g single 3-h i.v. infusion; read-out: observed geometric mean Cmax
measured.parameter: Cmax (µg/mL)

>>> recorded_number("CC1=C[C@@H]2CN(C(=O)N2OS(=O)(=O)O)[C@@H]1C(N)=O [durlobactam]")
106
